log10 of TGI by entry:
# Test system: HOP-92 NSCLC
# PROCEDURE_TEXT: NCI tumour cell line growth inhibition, 48 h
Scale: decimal log of TGI, TGI in µM.

In the examples that follow, each entry is paired with its recorded log10 of TGI.
INSERT INTO assay_data (structure_string, readout_number) VALUES
  ('COC(=O)Nc1nc2ccc(Sc3ccccc3)cc2[nH]1', 0.85),
  ('O=C(CCc1cccc(O)c1)NCCc1cccc(OCc2ccccc2)c1', 1.53),
  ('N#Cc1ccccc1Nc1ccccc1S', 1.90),
  ('O=[N+]([O-])c1ccc(-c2ccccc2)c([As](=O)(O)O)c1', 1.98);

Observed log10 of TGI on HOP-92 NSCLC for CCCc1ccc(OCC(=O)N/N=C/c2c(-c3ccccc3)[nH]c3ccccc23)cc1 , please.
1.55
